System: KM-H2 (Hodgkin's Lymphoma)
assay name: combination Emax (second highest fraction inhibited in the dose matrix, 72 h); higher = more inhibition; extreme values may be limits of the assay
observation type: combination Emax
Give only the figure.

- compound: "Cn1cnc2c(F)c(Nc3ccc(Br)cc3Cl)c(C(=O)NOCCO)cc21 [Selumetinib] + CC(C)n1c(=O)n(C)c2cnc3cc(F)c(-c4ccc(OCCCN5CCCCC5)nc4)cc3c21 [AZD1390] (first compound max 10 µM, 7x7, partner max 0.3 µM)"
  combination Emax: 0.153
- compound: "CC(=O)c1c(C)c2cnc(Nc3ccc(N4CCNCC4)cn3)nc2n(C2CCCC2)c1=O [Palbociclib] + CN(CC[C@H](CSC1=CC=CC=C1)NC2=C(C=C(C=C2)S(=O)(=O)NC(=O)C3=CC=C(C=C3)N4CCC(CC4)[C@H](C5=CC=CC=C5C6=CC=C(C=C6)Cl)O)S(=O)(=O)C(F)(F)F)CCO [AZD4320] (first compound max 10 µM, 7x7, partner max 1 µM)"
  combination Emax: 0.608

What value of combination Emax has been reported for the following compound? Cc1c2c(nn1C)CSCc1cc(n(C)n1)CSc1cc(c3ccccc3c1)OCCCc1c(C(=O)O)n(C)c3c-2c(Cl)ccc13 [AZD5991] + C1CN(CCC1(C(=O)N[C@@H](CCO)C2=CC=C(C=C2)Cl)N)C3=NC=NC4=C3C=CN4 [Capivasertib] (first compound max 1 µM, 7x7, partner max 3 µM)
0.143

---

System: KARPAS-620 (Plasma Cell Myeloma)
assay name: Bliss excess, mean over the matrix (fraction); higher = more synergy
Consider the following compounds and their measured Bliss excess readings.
Please give the numeric answer without any surrounding text.

// known answers, use as guide
- compound: "CN(C)CCCOc1ccc(-c2ccc3ncc4c(c3c2)n(C2CCOCC2)c(=O)n4C)cn1 [AZD0156] + C[C@@H]1COCCN1C2=NC(=NC(=C2)C3(CC3)[S@](=N)(=O)C)C4=C5C=CNC5=NC=C4 [AZD6738] (first compound max 1 µM, 7x7, partner max 10 µM)"
  target entity: "KARPAS-620 (Plasma Cell Myeloma)"
  Bliss excess: 0.0058
- compound: "C[C@@H](Nc1cc(F)cc(F)c1)c1cc(C(=O)N(C)C)cc2c(=O)cc(N3CCOCC3)oc12 [AZD8186] + CC(=O)c1c(C)c2cnc(Nc3ccc(N4CCNCC4)cn3)nc2n(C2CCCC2)c1=O [Palbociclib] (first compound max 10 µM, 7x7, partner max 10 µM)"
  target entity: "KARPAS-620 (Plasma Cell Myeloma)"
  Bliss excess: 0.15
- compound: "Cc1cc2ncnn2cc1Nc1ncc2c(n1)n(C1CCOCC1)c(=O)n2C [AZD7648] + COc1cc([C@@H]2c3cc4c(cc3[C@@H](O[C@@H]3O[C@@H]5CO[C@@H](C)O[C@H]5[C@H](O)[C@H]3O)[C@H]3COC(=O)[C@H]23)OCO4)cc(OC)c1O [Etoposide] (first compound max 10 µM, 7x7, partner max 10 µM)"
  target entity: "KARPAS-620 (Plasma Cell Myeloma)"
  Bliss excess: 0.0051
- compound: "CC1(C)CCC(CN2CCN(c3ccc(C(=O)NS(=O)(=O)c4ccc(NCC5CCOCC5)c([N+](=O)[O-])c4)c(Oc4cnc5[nH]ccc5c4)c3)CC2)=C(c2ccc(Cl)cc2)C1 [Venetoclax] + CN(C)CCCOc1ccc(-c2ccc3ncc4c(c3c2)n(C2CCOCC2)c(=O)n4C)cn1 [AZD0156] (first compound max 1 µM, 7x7, partner max 1 µM)"
  target entity: "KARPAS-620 (Plasma Cell Myeloma)"
  Bliss excess: 0.04

Form: Entry = O=C(c1cc(Cc2n[nH]c(=O)c3ccccc23)ccc1F)N1CCN(C(=O)C2CC2)CC1 [Olaparib] + COc1nnc2ccc(N3CCC(c4ccc(OCCN5CCN(C)C(=O)[C@H]5C)cc4)CC3)nn12 [AZD5153] (first compound max 10 µM, 7x7, partner max 1 µM) | System = KARPAS-620 (Plasma Cell Myeloma) | Bliss excess = ____
-0.0365

---

Test system: KARPAS-620 (Plasma Cell Myeloma)
assay name: Bliss excess, mean over the matrix (fraction); higher = more synergy
Let's look at some compounds and their measured Bliss excess.

Query: Bliss excess; subject: CN(CCO)CC[C@H](CSc1ccccc1)Nc1ccc(S(=O)(=O)NC(=O)c2ccc(N3CCC([C@@H](O)c4ccccc4-c4ccc(Cl)cc4)CC3)cc2)cc1S(=O)(=O)C(F)(F)F [AZD4320] + Cn1cnc2c(F)c(Nc3ccc(Br)cc3Cl)c(C(=O)NOCCO)cc21 [Selumetinib] (first compound max 1 µM, 7x7, partner max 3 µM)
0.0613

Requested field: Bliss excess. Item: CCN(CCO)CCCOc1ccc2c(Nc3cc(CC(=O)Nc4cccc(F)c4)[nH]n3)ncnc2c1 [AZD2811] + C[C@@H]1COCCN1C2=NC(=NC(=C2)C3(CC3)[S@](=N)(=O)C)C4=C5C=CNC5=NC=C4 [AZD6738] (first compound max 1 µM, 7x7, partner max 10 µM)
-0.0121

If you can, please state the reported Bliss excess value of O=C(c1cc(Cc2n[nH]c(=O)c3ccccc23)ccc1F)N1CCN(C(=O)C2CC2)CC1 [Olaparib] + CN(CC[C@H](CSC1=CC=CC=C1)NC2=C(C=C(C=C2)S(=O)(=O)NC(=O)C3=CC=C(C=C3)N4CCC(CC4)[C@H](C5=CC=CC=C5C6=CC=C(C=C6)Cl)O)S(=O)(=O)C(F)(F)F)CCO [AZD4320] (first compound max 10 µM, 7x7, partner max 1 µM) .
0.0017

---

Tested on: IHH-4 (Thyroid Gland Carcinoma)
assay name: combination Emax (second highest fraction inhibited in the dose matrix, 72 h); higher = more inhibition; extreme values may be limits of the assay
Returns one of 1.0 or 0.0; 1.0 when combination Emax is >= 0.7.

- compound: "C[C@@H](Oc1cc(-c2cnn(C3CCNCC3)c2)cnc1N)c1c(Cl)ccc(F)c1Cl [Crizotinib] + CC1=C(C(=CC=C1)Cl)NC(=O)C2=CN=C(S2)NC3=CC(=NC(=N3)C)N4CCN(CC4)CCO [Dasatinib] (first compound max 10 µM, 7x7, partner max 2 µM)"
  category: 1.0
- compound: "CN(CCO)CC[C@H](CSc1ccccc1)Nc1ccc(S(=O)(=O)NC(=O)c2ccc(N3CCC([C@@H](O)c4ccccc4-c4ccc(Cl)cc4)CC3)cc2)cc1S(=O)(=O)C(F)(F)F [AZD4320] + CCN(CCO)CCCOc1ccc2c(Nc3cc(CC(=O)Nc4cccc(F)c4)[nH]n3)ncnc2c1 [AZD2811] (first compound max 1 µM, 7x7, partner max 1 µM)"
  category: 0.0
- compound: "C[C@@H](c1ccc2nccn2c1)n1nnc2ncc(-c3cnn(C)c3)nc21 [Savolitinib] + Cc1c2c(nn1C)CSCc1cc(n(C)n1)CSc1cc(c3ccccc3c1)OCCCc1c(C(=O)O)n(C)c3c-2c(Cl)ccc13 [AZD5991] (first compound max 1 µM, 7x7, partner max 1 µM)"
  category: 0.0

Is reported combination Emax greater than or equal to 0.7 here: CN(CCO)CC[C@H](CSc1ccccc1)Nc1ccc(S(=O)(=O)NC(=O)c2ccc(N3CCC([C@@H](O)c4ccccc4-c4ccc(Cl)cc4)CC3)cc2)cc1S(=O)(=O)C(F)(F)F [AZD4320] + CS(=O)(=O)CCNCc1ccc(-c2ccc3ncnc(Nc4ccc(OCc5cccc(F)c5)c(Cl)c4)c3c2)o1 [Lapatinib] (first compound max 1 µM, 7x7, partner max 10 µM)
0.0

Decide: combination Emax of COc1cccc(OCCCN)c1-c1cc(Nc2cnc(C#N)cn2)n[nH]1 [Prexasertib] + Cc1cc2ncnn2cc1Nc1ncc2c(n1)n(C1CCOCC1)c(=O)n2C [AZD7648] (first compound max 1 µM, 7x7, partner max 10 µM) >= 0.7?
1.0

Entry COc1cccc(OCCCN)c1-c1cc(Nc2cnc(C#N)cn2)n[nH]1 [Prexasertib] + C=CCn1c(=O)c2cnc(Nc3ccc(N4CCN(C)CC4)cc3)nc2n1-c1cccc(C(C)(C)O)n1 [AZD1775] (first compound max 1 µM, partner max 1 µM) : is its combination Emax no less than 0.7?
1.0

For this compound, is measured combination Emax 0.7 or higher? CC1(C)CCC(CN2CCN(c3ccc(C(=O)NS(=O)(=O)c4ccc(NCC5CCOCC5)c([N+](=O)[O-])c4)c(Oc4cnc5[nH]ccc5c4)c3)CC2)=C(c2ccc(Cl)cc2)C1 [Venetoclax] + CN(C)CCCOc1ccc(-c2ccc3ncc4c(c3c2)n(C2CCOCC2)c(=O)n4C)cn1 [AZD0156] (first compound max 1 µM, 7x7, partner max 1 µM)
0.0

---

Tested on: U-266 (Plasma Cell Myeloma)
assay name: Bliss excess, mean over the matrix (fraction); higher = more synergy
Readings of Bliss excess for the listed molecules

- molecule: "Cn1cnc2c(F)c(Nc3ccc(Br)cc3Cl)c(C(=O)NOCCO)cc21 [Selumetinib] + CCN(CCO)CCCOc1ccc2c(Nc3cc(CC(=O)Nc4cccc(F)c4)[nH]n3)ncnc2c1 [AZD2811] (first compound max 10 µM, 7x7, partner max 1 µM)"
  Bliss excess: 0.0128

Now turn to the next molecule.
Recorded Bliss excess of Cc1c2c(nn1C)CSCc1cc(n(C)n1)CSc1cc(c3ccccc3c1)OCCCc1c(C(=O)O)n(C)c3c-2c(Cl)ccc13 [AZD5991] + Nc1ccn([C@@H]2O[C@H](CO)[C@@H](O)C2(F)F)c(=O)n1 [Gemcitabine] (first compound max 1 µM, 7x7, partner max 0.3 µM) , please.
0.0379

The measured values listed here are drawn from the supplement of paper PMC11061612.
